Target: Membrane-bound transcription factor site-1 protease (Homo sapiens)
Sequence (Q14703 whole entry): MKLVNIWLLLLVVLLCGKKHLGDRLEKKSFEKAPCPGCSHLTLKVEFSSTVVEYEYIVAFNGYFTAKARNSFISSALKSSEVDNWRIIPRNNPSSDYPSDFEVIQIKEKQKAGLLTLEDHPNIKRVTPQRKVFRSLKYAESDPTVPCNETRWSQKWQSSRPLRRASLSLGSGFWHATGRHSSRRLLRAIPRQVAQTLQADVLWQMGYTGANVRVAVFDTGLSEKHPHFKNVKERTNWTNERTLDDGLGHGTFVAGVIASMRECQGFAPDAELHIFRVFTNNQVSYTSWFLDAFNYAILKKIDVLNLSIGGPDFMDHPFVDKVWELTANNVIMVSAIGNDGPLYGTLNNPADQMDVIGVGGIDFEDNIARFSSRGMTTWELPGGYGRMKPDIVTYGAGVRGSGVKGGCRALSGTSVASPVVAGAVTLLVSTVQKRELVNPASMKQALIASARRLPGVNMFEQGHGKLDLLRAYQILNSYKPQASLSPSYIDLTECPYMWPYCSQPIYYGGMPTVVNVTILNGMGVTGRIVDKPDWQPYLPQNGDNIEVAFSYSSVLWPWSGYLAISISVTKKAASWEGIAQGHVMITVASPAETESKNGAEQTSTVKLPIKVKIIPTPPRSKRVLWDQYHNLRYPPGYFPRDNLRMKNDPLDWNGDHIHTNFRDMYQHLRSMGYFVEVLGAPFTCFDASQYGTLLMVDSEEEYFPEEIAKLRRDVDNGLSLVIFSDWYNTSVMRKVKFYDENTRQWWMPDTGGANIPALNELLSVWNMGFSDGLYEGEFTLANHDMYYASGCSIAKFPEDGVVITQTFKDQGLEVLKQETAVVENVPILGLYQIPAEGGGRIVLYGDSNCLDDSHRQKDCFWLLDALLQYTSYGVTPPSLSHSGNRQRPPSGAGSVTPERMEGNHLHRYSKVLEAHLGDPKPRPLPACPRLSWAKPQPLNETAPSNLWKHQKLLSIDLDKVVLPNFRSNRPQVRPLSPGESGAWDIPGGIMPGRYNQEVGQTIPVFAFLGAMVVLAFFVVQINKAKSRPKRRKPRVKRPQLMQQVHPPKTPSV
Assay: Inhibition of human recombinant soluble Kexin isozyme 1
assay_endpoint: Ki (µM)
Answers are plain numbers, in µM.

O=C(COc1ccccc1/N=N/c1ccccc1OCC(=O)N[C@@H](Cc1ccccc1)C(=O)N[C@@H](Cc1ccccc1)C(=O)O)N[C@@H](Cc1ccccc1)C(=O)N[C@@H](Cc1ccccc1)C(=O)O 140

Go through the items and report each one's Ki.
1. O=C(COc1ccccc1/N=N/c1ccccc1OCC(=O)N[C@@H](Cc1ccccc1)C(=O)O)N[C@@H](Cc1ccccc1)C(=O)O
2. CC(C)[C@H](NC(=O)COc1ccccc1/N=N/c1ccccc1OCC(=O)N[C@H](C(=O)O)C(C)C)C(=O)O
3. O=C(COc1ccccc1/N=N/c1ccccc1OCC(=O)N[C@@H](Cc1ccccc1)C(=O)OCc1ccccc1)N[C@@H](Cc1ccccc1)C(=O)OCc1ccccc1
4. O=C(O)CNC(=O)COc1ccccc1/N=N/c1ccccc1OCC(=O)NCC(=O)O
5. CC(C)[C@H](NC(=O)COc1ccccc1/N=N/c1ccccc1OCC(=O)N[C@H](C(=O)OCc1ccccc1)C(C)C)C(=O)OCc1ccccc1

Result ::
1: 225; 2: 75; 3: 11.8; 4: 265; 5: 125
